assay: Cytotoxicity against human HepG2 cells assessed as inhibition of cell growth after 48 hrs by LDH assay; type: cell-based; settings: HepG2 cells
Attribute: GI50 at 48 h
property: GI50 at 48 h

given_smiles=S=C(NCCCNCCCCCCNCCCNC(=S)NCc1ccccc1)NCc1ccccc1 property="GI50 at 48 h" reported_result="> 200 µM"
given_smiles=S=C(NCCCNCCCCNCCCNC(=S)NCc1ccccc1)NCc1ccccc1 property="GI50 at 48 h" reported_result="> 200 µM"
given_smiles=S=C(NCCCNCCCCCCNCCCNC(=S)NC(c1ccccc1)c1ccccc1)NC(c1ccccc1)c1ccccc1 property="GI50 at 48 h" reported_result="> 200 µM"
given_smiles=O=C(NCCCNCCCCCCCNCCCNC(=O)NC(c1ccccc1)c1ccccc1)NC(c1ccccc1)c1ccccc1 property="GI50 at 48 h" reported_result="> 200 µM"
